Recorded Cmax by entry
measurement.description: Pharmacokinetic evaluation in ICR mice
Type: in vivo
particulars: male, mouse, plasma, PO 10 mg/kg, read-out: Plasma concentration Cmax
value.type: Cmax

{"compound": "COc1cc2nc(C)nc(N[C@H](C)c3cccc(C#N)c3C)c2cc1N1CCC2(CCOCC2)CC1 [Compound 4]", "value.type": "Cmax", "measured.result": "2310 ng/mL"}
{"compound": "CC(=O)c1cc2nc(C)nc(N[C@H](C)c3cccc(C#N)c3C)c2cc1N1CCC2(CC1)COC2 [Compound 26]", "value.type": "Cmax", "measured.result": "2830 ng/mL"}
{"compound": "COc1cc2nc(C)nc(N[C@H](C)c3cccc(C#N)c3C)c2cc1C1(OC)CCN(C(C)=O)CC1 [Compound 32]", "value.type": "Cmax", "measured.result": "5610 ng/mL"}

----------
measurement.description: Pharmacokinetic evaluation in beagle dogs
Assay type: in vivo
particulars: male, dog, plasma, iv, injection 0.5 mg/kg, read-out: Area under curve AUC0-t

{"compound.structure.string": "COc1cc2nc(C)nc(N[C@H](C)c3cccc(C#N)c3C)c2cc1N1CCC(C)(O)CC1", "AUC(0-t) / ng·h/mL": 693}

----------
Recorded Cmax by entry
measurement.description: Pharmacokinetic evaluation in Balb/c mice
Type: in vivo
particulars: male, mouse, plasma, PO 10 mg/kg, read-out: Plasma concentration Cmax
value.type: Cmax (ng/mL)

{"compound": "CCOC(=O)N1CCN(c2cc3c(N[C@H](C)c4cccc(C#N)c4C)nc(C)nc3cc2OC)CC1 [Compound 30]", "measured.result": 4660}
{"compound": "COc1cc2nc(C)nc(N[C@H](C)c3cccc(C#N)c3C)c2cc1N1CCC(N2CCN(C(C)=O)CC2)CC1 [Compound 27]", "measured.result": 1150}

----------
measurement.description: Pharmacokinetic evaluation in beagle dogs
Format: in vivo
particulars: male, dog, plasma, Oral 2 mg/kg, read-out: Plasma concentration Cmax

{"molecule": "COc1cc2nc(C)nc(N[C@H](C)c3cccc(C#N)c3C)c2cc1N1CCC(C)(O)CC1 [Compound 11]", "Cmax [ng/mL]": 456}

----------
measurement.description: Pharmacokinetic evaluation in SD rats
Assay type: in vivo
particulars: male, rat, plasma, Oral 10 mg/kg, read-out: Plasma concentration Cmax
value.type: Cmax (ng/mL)

{"compound.structure.string": "COc1cc2nc(C)nc(N[C@H](C)c3cccc(C#N)c3C)c2cc1N1CCC(C)(O)CC1", "measured.result": 1150}

----------
measurement.description: Pharmacokinetic evaluation in SD rats
Assay type: in vivo
particulars: male, rat, plasma, Oral 10 mg/kg vs injection 1 mg/kg, read-out: Bioavailability F

{"compound.structure.string": "COc1cc2nc(C)nc(N[C@H](C)c3cccc(C#N)c3C)c2cc1N1CCC(C)(O)CC1", "bioavailability [%]": 79.4}

----------
Recorded half-life by entry
measurement.description: Pharmacokinetic evaluation in Balb/c mice
Type: in vivo
particulars: male, mouse, plasma, PO 10 mg/kg, read-out: Half-life T1/2 (converted)
value.type: half-life (h)

{"compound.structure.string": "CCOC(=O)N1CCN(c2cc3c(N[C@H](C)c4cccc(C#N)c4C)nc(C)nc3cc2OC)CC1", "measured.result": 0.79}
{"compound.structure.string": "COc1cc2nc(C)nc(N[C@H](C)c3cccc(C#N)c3C)c2cc1N1CCC(N2CCN(C(C)=O)CC2)CC1", "measured.result": 4.91}
